- protocol.notes: In vivo PK in CD-1 mice, plasma and brain by LC-MS/MS
- condition.label: male, CD-1, mouse, plasma, po, 10 mg/kg, T1/2, plasma, 10 mg/kg PO, sampling 1, 3, 8 h
measured.parameter: half-life (h)
// units = h; emit number, no label

State its half-life for this compound: CC(C)NC(=O)N1CC[C@H](NC2=Nc3cc(F)ccc3N(CC(F)F)c3ccc(Cl)cc32)C1
1.4

----------
- protocol.notes: Plasma and brain NVS-PAK1-1 concentrations in 5xFAD mice
- Type: in vivo
- condition.label: female, 5xFAD, mouse, plasma, po, 100 mg/kg, aged 5xFAD females, 100 mg/kg BID PO 31 days, 4 h after final dose; read-out: plasma concentration
measured.parameter: concentration at 4 h (ng/mL)
Answer format: numeric, ng/mL implied, no suffix.

Supply reported concentration at 4 h belonging to this compound: CC(C)NC(=O)N1CC[C@H](NC2=Nc3cc(F)ccc3N(CC(F)F)c3ccc(Cl)cc32)C1 [NVS‐PAK1‐1]
354

----------
- protocol.notes: In vivo PK in CD-1 mice, plasma and brain by LC-MS/MS
- condition.label: male, CD-1, mouse, plasma, po, 10 mg/kg, Cmax, 10 mg/kg PO, sampling 1, 3, 8 h
measured.parameter: Cmax

Tell me its Cmax given CC(C)NC(=O)N1CC[C@H](NC2=Nc3cc(F)ccc3N(CC(F)F)c3ccc(Cl)cc32)C1 as the entry.
112 ng/mL

----------
- protocol.notes: In vivo PK in CD-1 mice, plasma and brain by LC-MS/MS
- condition.label: male, CD-1, mouse, plasma, po, 10 mg/kg, Cmax, 10 mg/kg PO, sampling 0.5, 1, 3, 5 h
measured.parameter: Cmax (ng/mL)
Just the number please, in ng/mL, no unit attached.

Let me know recorded Cmax for CC(C)NC(=O)N1CC[C@H](NC2=Nc3cc(F)ccc3N(CC(F)F)c3ccc(Cl)cc32)C1 , thanks.
130

----------
- protocol.notes: In vivo PK in CD-1 mice, plasma and brain by LC-MS/MS
- condition.label: male, CD-1, mouse, brain, oral, 100 mg/kg
measured.parameter: concentration at 3 h (ng/g)
Form entry: value (ng/g) — number only.

For the compound CC(C)NC(=O)N1CC[C@H](NC2=Nc3cc(F)ccc3N(CC(F)F)c3ccc(Cl)cc32)C1 , give its measured concentration at 3 h value.
61.6

----------
- protocol.notes: Plasma and brain NVS-PAK1-1 concentrations in 5xFAD mice
- Type: in vivo
- condition.label: female, 5xFAD, mouse, brain, po, 100 mg/kg, young 5xFAD females, 100 mg/kg BID PO 12 weeks, 4 h after final dose; read-out: mean brain concentration
- Method: Serial blood was collected from n = 3 per treatment group at 0.5, 1, 2, and 4 hours post dose; with terminal blood and brain collected at 4 hours post dose. […] For plasma samples, three volumes of acetonitrile containing internal standard was added to one volume of plasma, and centrifuged at 3000 g for 10 minute; then, the supernatant was removed and analyzed by LC‐MS/MS. […]
measured.parameter: concentration at 4 h (ng/g)
Give the value, in units of ng/g, as a plain number.

Please report the measured concentration at 4 h for CC(C)NC(=O)N1CC[C@H](NC2=Nc3cc(F)ccc3N(CC(F)F)c3ccc(Cl)cc32)C1
44.9

----------
- protocol.notes: In vivo PK in CD-1 mice, plasma and brain by LC-MS/MS
- condition.label: male, CD-1, mouse, plasma, po, 10 mg/kg, AUClast, 10 mg/kg PO, sampling 0.5, 1, 3, 5 h
- Procedure: Initial in vivo PK studies to confirm oral bioavailability and brain exposure were conducted at Pharmaron (Beijing, China) in non‐fasted male CD‐1 mice (6–8 weeks of age; sourced from Vital River). […] The dose volume was 10 mL/kg. Next, we evaluated brain and plasma PK of 10 mg/kg (1 hour pre, IP, n = 3). […]
measured.parameter: AUC(0-t)
# answer = value followed by unit

// Input: CC(C)NC(=O)N1CC[C@H](NC2=Nc3cc(F)ccc3N(CC(F)F)c3ccc(Cl)cc32)C1 [NVS‐PAK1‐1] . Output its AUC(0-t) only.
223 ng·h/mL
